- subject.of.test: Cytochrome P450 2C9 (Homo sapiens)
- run.description: Cytochrome panel assay with activity outcomes; also: % is scaled to controls: 0 for no effect and ±100 for the full control effect
- test.context: recombinant CYP, pro-luciferin dealkylation, luminescence, p450-cyp2c9; series mostly up to 57.1 µM
Out of some 16,000 compounds screened, about 4,000 (25%) were called active. About 26% were inconclusive and are not listed. Only a sample is shown.
measured.attribute: activity, negative = inhibition

Consider the worked cases shown below.
> print(dat)
                                   molecule               measured.attribute                          result
1  COc1cc(C(=O)OC2C[C@H]3CC[C@@H](C2)N3C)ccc1O (stereo partly specified)  activity, negative = inhibition                        inactive
2              COc1ccc2[nH]c3c(c2c1)CCN=C3C  activity, negative = inhibition                        inactive
3  COC(=O)[C@@H]1[C@@H](O)[C@@]2(O)c3c(OC)cc(OC)cc3O[C@@]2(c2ccc(OC)cc2)[C@H]1c1ccccc1  activity, negative = inhibition  -21.1% [at 11.4 µM] (inactive)
4  C[N+]1(C)CCO[C@@](O)(c2ccc(-c3ccc([C@]4(O)C[N+](C)(C)CCO4)cc3)cc2)C1  activity, negative = inhibition                        inactive
5  C[N+](C)(C)[C@H](Cc1c[nH]c(=S)[nH]1)C(=O)O  activity, negative = inhibition   11.9% [at 11.4 µM] (inactive)
6  C=CCN1C[C@H](C)N([C@H](c2ccc(C(=O)N(CC)CC)cc2)c2cccc(OC)c2)C[C@H]1C  activity, negative = inhibition                        inactive
7  O=C(CCCN1CCC2(CC1)C(=O)N(Cc1cccc(F)c1)CN2c1ccccc1)c1ccc(F)cc1  activity, negative = inhibition                        inactive
8        CCCN1CC[C@@H]2c3cc(O)ccc3CC[C@H]21  activity, negative = inhibition                        inactive

The molecule listed as Nc1ncnc2c1ncn2[C@@H]1O[C@@H](COP(=O)(O)CP(=O)(O)OP(=O)(O)O)[C@H](O)[C@@H]1O shows activity, negative = inhibition equal to inactive

For NCCc1c[nH]c2ccccc12 the molecule record lists activity, negative = inhibition as inactive

Memo: CN(C)CCCNc1c2c(nc3ccc(Cl)cc13)CCCC2 , reported activity, negative = inhibition: 6.4% [at 11.4 µM] (inactive)

The molecule C[C@]12CC[C@@H]3[C@H](CCC4=CC(=O)CC[C@]43C)[C@]1(O)CC[C@@]2(O)C(=O)CO showed activity, negative = inhibition equal to -5.6% [at 11.4 µM] (inactive)

In plain terms, C=CCN1C[C@@H](C)N([C@H](c2ccc(C(=O)N(CC)CC)cc2)c2cccc(OC)c2)C[C@H]1C has a documented activity, negative = inhibition of inactive

# activity, negative = inhibition (molecule: CC(C)N(CC[C@@](C(N)=O)(c1ccccc1)c1ccccn1)C(C)C ) is inactive

activity, negative = inhibition reading for CNCCCc1ccccc1 : inactive

Per the record, Cc1c(OCC(F)(F)F)ccnc1CS(=O)c1nc2ccccc2[nH]1 (stereo unspecified) has activity, negative = inhibition of inactive

Measured activity, negative = inhibition, CC[C@]1(c2cccc(O)c2)CCCCN(C)C1 : inactive

// C[N+](C)(C)CCCCCC[N+](C)(C)C : activity, negative = inhibition value = inactive
